Entries with their measured Ki, system Dihydrofolate reductase (Lactobacillus casei, UniProt P00381):
readout_kind: Ki (µM)

[A] CCCCOc1ccccc1Cc1cnc(N)nc1N
[B] Nc1ncc(Cc2ccccc2I)c(N)n1
[C] NC(=O)COc1ccccc1Cc1cnc(N)nc1N
Input line: Sort these molecules on Ki so the largest reading comes first. I would appreciate it if you listed the labels in the requested order.
Output line: C, A, B
(C: 79.4 µM, A: 35.5 µM, B: 11.5 µM)

---

measurement_protocol: Selectivity measured as log[1/Ki(Lactobacillus casei DHFR)]-log[1/Ki(chicken liver DHFR)]
readout_kind: Selectivity index

COCc1ccccc1Cc1cnc(N)nc1N; 0.15

[a] Nc1ncc(Cc2ccccc2F)c(N)n1
[b] COc1ccccc1Cc1cnc(N)nc1N
Input line: Exercise: compare a and b ; which one has the greater Selectivity index? # answer = label of selected item
Output line: a

---

measurement_protocol: Selectivity measured as log[1/Ki(Lactobacillus casei DHFR)]-log[1/Ki(chicken liver DHFR)]
readout_kind: Selectivity index

[P] Nc1ncc(Cc2ccccc2Br)c(N)n1
[Q] CCCCOc1ccccc1Cc1cnc(N)nc1N
[R] Nc1ncc(Cc2ccccc2)c(N)n1
[S] Nc1ncc(Cc2ccccc2Cl)c(N)n1
[T] Nc1ncc(Cc2ccccc2I)c(N)n1
Input line: # sort list by recorded Selectivity index, greatest to least Response field: labels, in requested order.
Output line: R, S, P, T, Q
(R: 0.49, S: 0.26, P: 0.09, T: -0.12, Q: -0.61)

[a] Cc1ccccc1Cc1cnc(N)nc1N
[b] NC(=O)COc1ccccc1Cc1cnc(N)nc1N
Input line: Between the entries labelled a and b , which has a larger Selectivity index value on record? Reply with the label of the item you choose.
Output line: a
(a: 0.49, b: -0.37)

---

The reader will find Ki measurements below, all made with Dihydrofolate reductase (Lactobacillus casei, UniProt P00381).
Sequence (P00381 whole entry): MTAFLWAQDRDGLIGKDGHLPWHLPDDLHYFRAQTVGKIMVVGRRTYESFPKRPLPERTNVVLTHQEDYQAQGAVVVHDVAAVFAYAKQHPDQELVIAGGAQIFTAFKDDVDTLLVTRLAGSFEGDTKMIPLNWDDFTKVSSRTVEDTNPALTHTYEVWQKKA
readout_kind: Ki (µM)

Nc1ncc(Cc2ccccc2Br)c(N)n1; 10
Nc1ncc(Cc2ccccc2F)c(N)n1; 9.55
Nc1ncc(Cc2ccccc2Cl)c(N)n1; 9.55

---

measurement_protocol: Selectivity measured as log[1/Ki(Lactobacillus casei DHFR)]-log[1/Ki(chicken liver DHFR)]
readout_kind: Selectivity index

Nc1ncc(Cc2ccccc2OCc2ccccc2)c(N)n1; -0.3
CCCCCCOc1ccccc1Cc1cnc(N)nc1N; -1.1
CCOc1ccccc1Cc1cnc(N)nc1N; 0.09
Nc1ncc(Cc2ccccc2O)c(N)n1; -0.09

[A] CS(=O)(=O)Oc1ccccc1Cc1cnc(N)nc1N
[B] COc1cccc(Cc2cnc(N)nc2N)c1
[C] C=CCOc1ccccc1Cc1cnc(N)nc1N
Input line: Rank the 3 molecules: largest Selectivity index first, smallest last. Give the labels in the order specified.
Output line: B, C, A
